Test: dissolution into hexane solution at room temperature
Type: physicochemical
property_name: solubility in hexane solution

CCCCc1c(C(=O)OC)c(C(=O)OC)c(CCCC)c2cc3c(CCCC)c4cc5c(CC)c(CC)c(CC)c(CC)c5cc4c(CCCC)c3cc12 = dissolved
CCCCc1c(C(=O)OC)c(C(=O)OC)c(CCCC)c2cc3c(CCCC)c4cc5ccccc5cc4c(CCCC)c3cc12 = dissolved
CCCc1c(C(=O)OC)c(C(=O)OC)c(CCC)c2cc3c(CCC)c4cc5c(CC)c(CC)c(CC)c(CC)c5cc4c(CCC)c3cc12 = dissolved
